These data points were gathered from paper PMC7991740.

# ASSAY_SYSTEM: HLA-DRB1*07:01 (Homo sapiens, UniProt P01903+P01911, A100R/A102G/A103Q/D57E/D86V/E43K/F76Y/K127E/L162R/M171V/P40G/Q125H/Q99D/R33Q/R42Y/R54Q/S133A/S66F/T210M/V115G/Y107V/Y59L/Y89S)
# ASSAY_OVERVIEW: biochemical
# Type: binding
# RUN_CONDITIONS: […]; mean of at least two independent experiments; read-out: IC50 DRB1*0701 (converted)
Recorded IC50, one value per entry.
QUANTITY_NAME: IC50 (nM)

* CC(C)C[C@H](NC(=O)[C@H](CCCCN)NC(=O)[C@H](CC(C)C)NC(=O)[C@@H](NC(=O)[C@H](CC(N)=O)NC(=O)C(C)(C)NC(=O)[C@H](CCCCN)NC(=O)[C@@H](NC(=O)[C@H](Cc1ccc(O)cc1)NC(=O)[C@H](CCCCN)NC(=O)[C@@H]1CCCN1)C(C)C)[C@@H](C)O)C(=O)N[C@@H](C)C(=O)N[C@H](C(=O)O)[C@@H](C)O | 75
* CC(C)C[C@H](NC(=O)[C@H](CCCCN)NC(=O)[C@H](CC(C)C)NC(=O)[C@@H](NC(=O)[C@H](CC(N)=O)NC(=O)[C@H](CCC(N)=O)NC(=O)[C@H](CCCCN)NC(=O)C(C)(C)NC(=O)[C@H](Cc1ccc(O)cc1)NC(=O)[C@H](CCCCN)NC(=O)[C@@H]1CCCN1)[C@@H](C)O)C(=O)N[C@@H](C)C(=O)N[C@H](C(=O)O)[C@@H](C)O | 6000
* CC(C)C[C@H](NC(=O)[C@H](CCCCN)NC(=O)[C@H](CC(C)C)NC(=O)[C@@H](NC(=O)[C@H](CC(N)=O)NC(=O)[C@H](CCC(N)=O)NC(=O)[C@H](CCCCN)NC(=O)[C@@H](NC(=O)[C@H](Cc1ccc(O)cc1)NC(=O)[C@H](CCCCN)NC(=O)[C@@H]1CCCN1)C(C)C)[C@@H](C)O)C(=O)NC(C)(C)C(=O)N[C@H](C(=O)O)[C@@H](C)O | 9
